Values were extracted from patent US20120316071A1.

- assay_system: T1, Recombinant Human DLL4 (R&D Systems Cat#1506-D4/CF) (human, UniProt Q9NR61 27-524)
- T1 construct: also called rHuman DLL4; delta-like protein 4
- assay_remarks: ECL (MSD) multispot binding assay, Fab on immobilized recombinant human DLL4
Recorded ECL Signal/Blank values for a group of binders are listed next.
measured_parameter: ECL Signal/Blank

[
  {
    "binder": "Fab VH5-51_IGHD5-18*01>3_IGHJ4*01 G100K/G104T (KT) & V3-4_IGLJ1*01 (Fab, V domains shown, Tested as Fab; Fabs were expressed in E. coli from plasmid A (heavy chain CH1, His6 and Flag tags) and plasmid E (lambda CL); also called H:KT & L:wt) VH: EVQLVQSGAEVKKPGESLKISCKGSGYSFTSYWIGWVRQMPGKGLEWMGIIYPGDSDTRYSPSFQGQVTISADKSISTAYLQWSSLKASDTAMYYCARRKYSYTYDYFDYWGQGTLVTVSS VL: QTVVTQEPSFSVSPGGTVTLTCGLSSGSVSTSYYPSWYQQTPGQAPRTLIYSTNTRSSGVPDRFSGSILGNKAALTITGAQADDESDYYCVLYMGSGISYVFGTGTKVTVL",
    "assay_result": 49.2
  },
  {
    "binder": "Fab VH5-51_IGHD5-18*01>3_IGHJ4*01 G100K/G104T G54A & V3-4_IGLJ1*01 (Fab, V domains shown, Tested as Fab; CH1 with His6/Flag tags (plasmid A) and lambda CL (plasmid E) come from the expression vectors) VH: EVQLVQSGAEVKKPGESLKISCKGSGYSFTSYWIGWVRQMPGKGLEWMGIIYPADSDTRYSPSFQGQVTISADKSISTAYLQWSSLKASDTAMYYCARRKYSYTYDYFDYWGQGTLVTVSS VL: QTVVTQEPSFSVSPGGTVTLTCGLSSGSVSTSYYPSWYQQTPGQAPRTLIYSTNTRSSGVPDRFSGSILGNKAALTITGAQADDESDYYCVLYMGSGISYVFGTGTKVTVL",
    "assay_result": 4.1
  },
  {
    "binder": "Fab VH5-51_IGHD5-18*01>3_IGHJ4*01 G100K/G104T T58A & V3-4_IGLJ1*01 (Fab, V domains shown, Tested as Fab; CH1 with His6/Flag tags (plasmid A) and lambda CL (plasmid E) come from the expression vectors) VH: EVQLVQSGAEVKKPGESLKISCKGSGYSFTSYWIGWVRQMPGKGLEWMGIIYPGDSDARYSPSFQGQVTISADKSISTAYLQWSSLKASDTAMYYCARRKYSYTYDYFDYWGQGTLVTVSS VL: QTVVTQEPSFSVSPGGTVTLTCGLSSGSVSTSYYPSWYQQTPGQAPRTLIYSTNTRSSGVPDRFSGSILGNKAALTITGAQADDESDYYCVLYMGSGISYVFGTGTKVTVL",
    "assay_result": 102
  }
]
